test target: ER in MCF-7 cells (Homo sapiens (Human))
Sequence (P03372 whole entry): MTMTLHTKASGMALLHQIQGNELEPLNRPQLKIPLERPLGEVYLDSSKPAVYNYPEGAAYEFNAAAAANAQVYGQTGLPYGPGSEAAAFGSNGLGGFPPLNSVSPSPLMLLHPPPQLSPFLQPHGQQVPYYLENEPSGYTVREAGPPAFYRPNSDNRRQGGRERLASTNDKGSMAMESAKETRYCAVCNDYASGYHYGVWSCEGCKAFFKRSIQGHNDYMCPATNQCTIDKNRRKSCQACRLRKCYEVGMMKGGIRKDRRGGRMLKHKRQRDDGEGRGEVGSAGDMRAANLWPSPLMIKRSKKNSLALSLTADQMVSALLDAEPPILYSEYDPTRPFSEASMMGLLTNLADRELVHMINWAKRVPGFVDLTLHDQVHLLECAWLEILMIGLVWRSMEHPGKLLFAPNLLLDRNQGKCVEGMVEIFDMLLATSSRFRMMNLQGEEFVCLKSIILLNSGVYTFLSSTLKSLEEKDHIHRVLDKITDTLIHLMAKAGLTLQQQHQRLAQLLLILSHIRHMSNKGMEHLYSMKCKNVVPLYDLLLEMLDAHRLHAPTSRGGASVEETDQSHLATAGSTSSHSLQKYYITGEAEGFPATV
test name: In-cell Western (ICW) ER degradation assay in MCF-7 cells
Assay type: cell-based
condition parameters: MCF-7, ER degradation, 16 hrs treatment; read-out: MCF7 DC50
Counter-ions that a name gives are not always drawn.

| compound | DC50 |
| --- | --- |
| COc1c([C@@H]2c3ccc(O)cc3CC[C@@H]2c2ccccc2)ccc(N2CCC3(CC2)CC(CN2CCN4c5cc6c(cc5OC[C@@H]4C2)C(=O)N([C@H]2CCC(=O)NC2=O)C6)C3)c1F [Compound A197] | < 1 nM |
| O=C1CC[C@@H](Nc2ccc(C3CCN(C[C@@H]4COC5(CCN(c6ccc([C@H]7c8ccc(O)cc8CC[C@H]7c7ccccc7)cc6)CC5)C4)CC3)c(F)c2)C(=O)N1 (single isomer, unassigned) [Compound A60] | > 100 nM |
| COc1cc(N2CCC(CN3CCC(c4ccc(N[C@@H]5CCC(=O)NC5=O)cc4F)CC3)CC2)ccc1[C@H]1c2ccc(O)cc2CC[C@H]1c1ccccc1 (stereo in doubt) [Compound A84, formate] | < 1 nM |
| COc1cc(N2CCC3(CC2)C[C@@H](CN2CCN4c5cc6c(cc5OC[C@@H]4C2)C(=O)N([C@H]2CCC(=O)NC2=O)C6)CO3)ccc1[C@@H]1c2ccc(O)cc2CC[C@@H]1c1ccccc1 (single isomer, unassigned) [Compound A136] | < 1 nM |
| COc1cc(N2CCC3(CC2)CC(CN2CCC(c4ccc(N[C@H]5CCC(=O)NC5=O)cc4)CC2)C3)ccc1[C@@H]1c2ccc(O)cc2CC[C@@H]1c1ccccc1 (single isomer, unassigned) [Compound A96] | < 1 nM |
| O=C1CC[C@H](N2Cc3cc4c(cc3C2=O)OC[C@@H]2CN(CC3CC5(CCN(c6ccc([C@@H]7c8ccc(O)cc8CC[C@@H]7c7ccccc7)cn6)CC5)C3)CCN42)C(=O)N1 (single isomer, unassigned) [Compound A121] | 1 to 10 nM |
| O=C1CC[C@H](N2Cc3cc4c(cc3C2=O)OCC42CCN(C[C@H]3COC4(CCN(c5ccc([C@H]6c7ccc(O)cc7CC[C@H]6c6ccccc6)cc5)CC4)C3)CC2)C(=O)N1 [Compound A22] | < 1 nM |
| COc1cc(N2CC3(CCC(CN4CCC5(CC4)COc4nc(C(=O)N[C@H]6CCC(=O)NC6=O)ccc45)CC3)C2)c(F)cc1[C@@H]1c2ccc(O)cc2CC[C@@H]1c1ccccc1 [Compound A179] | < 1 nM |
| COc1cc(N2CCC3(CC2)CC(CN2CCC(c4ccc(N[C@H]5CCC(=O)NC5=O)cc4F)CC2)C3)ccc1[C@@H]1c2ccc(O)cc2CC[C@@H]1c1ccccc1 (single isomer, unassigned) [Compound A105] | < 1 nM |

----------
test target: ER in MCF-7 cells (Homo sapiens (Human))
test name: In-cell Western (ICW) ER degradation assay in MCF-7 cells
Assay type: cell-based
condition parameters: MCF7, MCF-7, maximal ER degradation, 16 hrs treatment; read-out: MCF7 Dmax
measure name: Dmax

| molecule | result |
| --- | --- |
| COc1cc(N2CCC3(CC2)CC(CN2CCN4c5ccc6c(c5OC[C@H]4C2)CN([C@H]2CCC(=O)NC2=O)C6=O)CO3)ccc1[C@@H]1c2ccc(O)cc2CC[C@@H]1c1ccccc1 (stereo partly drawn) [Compound A53] | 25 to 50% |
| O=C1CC[C@H](N2Cc3c(ccc4c3OC[C@H]3CN(CC5CCC6(CC5)CN(c5ccc([C@@H]7c8ccc(O)cc8CC[C@@H]7c7ccccc7)cn5)C6)CCN43)C2=O)C(=O)N1 (single isomer, unassigned) [Compound A123] | > 75% |
| O=C1CC[C@H](N2Cc3c(ccc4c3OC[C@H]3CN(CC5CCC6(CC5)CN(c5ccc([C@@H]7c8ccc(O)cc8CC[C@@H]7c7ccccc7)cc5F)C6)CCN43)C2=O)C(=O)N1 (single isomer, unassigned) [Compound A152] | 50 to 75% |
| COc1cc(N2CCC3(CC2)CC(CN2CCN4c5ccc6c(c5OC[C@H]4C2)CN([C@H]2CCC(=O)N(C)C2=O)C6=O)C3)ccc1[C@@H]1c2ccc(O)cc2CC[C@@H]1c1ccccc1 (single isomer, unassigned) [Compound A132] | 50 to 75% |
| O=C1CC[C@H](N2Cc3cc4c(cc3C2=O)OC[C@@H]2CN(CC3CC5(CCN(c6cnc(C7c8ccc(O)cc8CCC7c7ccccc7)cn6)CC5)C3)CCN42)C(=O)N1 (stereo partly drawn) [Compound A194] | > 75% |
| COc1cc(N2CCC3(CC2)CC(CN2CCN4c5ccc(C(=O)N[C@H]6CCC(=O)NC6=O)nc5OC[C@@H]4C2)C3)ccc1[C@H]1c2ccc(O)cc2CC[C@H]1c1ccccc1 (single isomer, unassigned) [Compound A107] | 50 to 75% |
| COC1(CN2CCN3c4ccc5c(c4OC[C@H]3C2)CN([C@H]2CCC(=O)NC2=O)C5=O)CCN(c2ccc([C@@H]3c4ccc(O)cc4CC[C@@H]3c3ccccc3)cc2)CC1 [Compound A82] | > 75% |
| COc1cc(N2CCC(CN3CCN4c5ccc6c(c5OC[C@@H]4C3)CN([C@@H]3CCC(=O)NC3=O)C6=O)CC2)ccc1[C@H]1c2ccc(O)cc2CC[C@H]1c1ccccc1 (stereo in doubt) [Compound A24] | > 75% |
| O=C1CC[C@@H](Nc2ccc(C3CCN(C[C@H]4COC5(CCN(c6ccc([C@@H]7c8ccc(O)cc8CC[C@@H]7c7ccccc7)cc6)CC5)C4)CC3)cc2)C(=O)N1 (single isomer, unassigned) [Compound A51] | < 25% |
